tgt: NaV1.8 (Homo sapiens)
Sequence (Q9Y5Y9 whole entry): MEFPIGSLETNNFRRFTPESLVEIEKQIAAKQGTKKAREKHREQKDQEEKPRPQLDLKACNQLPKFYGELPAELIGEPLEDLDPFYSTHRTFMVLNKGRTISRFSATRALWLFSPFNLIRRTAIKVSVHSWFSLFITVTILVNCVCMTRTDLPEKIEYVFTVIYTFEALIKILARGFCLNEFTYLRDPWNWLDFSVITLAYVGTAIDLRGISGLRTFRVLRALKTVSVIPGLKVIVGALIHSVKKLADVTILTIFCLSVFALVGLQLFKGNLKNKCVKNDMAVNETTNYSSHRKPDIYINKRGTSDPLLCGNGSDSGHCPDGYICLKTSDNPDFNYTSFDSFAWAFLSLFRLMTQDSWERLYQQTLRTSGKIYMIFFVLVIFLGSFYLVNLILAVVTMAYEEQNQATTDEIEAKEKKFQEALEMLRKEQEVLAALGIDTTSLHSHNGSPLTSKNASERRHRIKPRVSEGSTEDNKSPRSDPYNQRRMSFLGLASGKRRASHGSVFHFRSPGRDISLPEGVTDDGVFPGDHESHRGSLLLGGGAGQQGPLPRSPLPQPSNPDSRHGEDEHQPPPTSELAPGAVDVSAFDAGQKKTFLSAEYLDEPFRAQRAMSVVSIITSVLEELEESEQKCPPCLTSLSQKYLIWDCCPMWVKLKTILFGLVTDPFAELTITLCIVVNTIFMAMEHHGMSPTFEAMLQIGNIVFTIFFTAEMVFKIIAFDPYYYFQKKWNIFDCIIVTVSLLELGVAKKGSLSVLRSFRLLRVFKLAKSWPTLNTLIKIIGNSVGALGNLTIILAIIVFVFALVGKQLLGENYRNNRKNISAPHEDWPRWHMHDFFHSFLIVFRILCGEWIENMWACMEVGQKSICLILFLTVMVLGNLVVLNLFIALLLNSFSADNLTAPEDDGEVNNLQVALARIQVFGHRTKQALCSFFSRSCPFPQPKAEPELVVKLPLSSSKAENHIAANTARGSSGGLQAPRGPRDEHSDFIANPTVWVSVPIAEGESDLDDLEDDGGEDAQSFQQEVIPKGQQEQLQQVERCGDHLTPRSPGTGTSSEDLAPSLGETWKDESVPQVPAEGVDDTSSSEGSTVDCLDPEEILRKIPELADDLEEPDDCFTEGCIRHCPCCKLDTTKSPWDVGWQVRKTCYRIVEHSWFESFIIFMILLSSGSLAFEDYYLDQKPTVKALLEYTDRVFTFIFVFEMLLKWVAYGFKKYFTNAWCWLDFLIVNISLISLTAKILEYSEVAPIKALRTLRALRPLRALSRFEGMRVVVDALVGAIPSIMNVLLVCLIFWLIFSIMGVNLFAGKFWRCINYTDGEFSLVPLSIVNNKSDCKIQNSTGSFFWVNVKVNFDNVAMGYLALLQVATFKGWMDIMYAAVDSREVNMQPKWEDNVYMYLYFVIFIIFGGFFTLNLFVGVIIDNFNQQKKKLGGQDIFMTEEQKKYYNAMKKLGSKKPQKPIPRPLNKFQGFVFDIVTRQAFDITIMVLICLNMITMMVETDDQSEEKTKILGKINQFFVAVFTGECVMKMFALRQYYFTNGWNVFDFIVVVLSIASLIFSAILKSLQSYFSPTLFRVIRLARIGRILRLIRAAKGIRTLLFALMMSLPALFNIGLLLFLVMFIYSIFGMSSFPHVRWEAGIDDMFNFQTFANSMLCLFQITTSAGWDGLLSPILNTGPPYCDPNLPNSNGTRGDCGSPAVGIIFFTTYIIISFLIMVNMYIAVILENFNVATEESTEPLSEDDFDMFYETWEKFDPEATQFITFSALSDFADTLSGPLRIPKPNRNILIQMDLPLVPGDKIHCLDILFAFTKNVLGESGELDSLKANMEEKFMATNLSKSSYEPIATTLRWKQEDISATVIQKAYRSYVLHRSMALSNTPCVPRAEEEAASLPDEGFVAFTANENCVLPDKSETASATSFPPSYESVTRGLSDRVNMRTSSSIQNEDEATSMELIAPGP
test: VIPR optical membrane potential assay, NaV1.8 (other subtypes in an analogous mode)
Format: cell-based
test settings: Table 9, NaV 1.8 receptors
Experimental: Antagonist properties of test compounds were assessed as follows. Cells expressing the NaV of interest were placed into microtiter plates. […] The cells were stimulated with either chemical or electrical means to evoke a NaV dependent membrane potential change from unblocked channels, which was detected and measured with trans-membrane potential-sensitive dyes. Antagonists were detected as a decreased membrane potential response to the stimulus. […]
pIC50: −log10 of the molar value.
A collection of molecules and their measured pIC50

{"columns": ["smiles text", "pIC50"],
 "data": [
  ["O=C(c1cnc(N2CCCCC2)nc1-c1ccccc1F)N(Cc1ccccc1)C1CC1", "5.00 to 5.70"],
  ["COc1ccc(CN(C(=O)c2cnc(N3CCN(C)CC3)nc2-c2ccccc2F)C2CC2)cc1", "< 5.00"],
  ["COc1cccc(N(C(=O)c2cnc(N3CCOCC3)nc2-c2ccccc2F)C2CCCC2)c1", "< 5.00"]
]}

Q: # query: pIC50 of entry `CC(C)N(Cc1cccc(O)c1)C(=O)c1cnc(N2CCOCC2)nc1-c1ccccc1F`
Ans: < 5.00
